- Tested System: T1, cynomolgus monkey IL4Rα-his protein (cynomolgus monkey, UniProt A0A2K5V580 33-239)
- T1 construct: Bought protein; also called Cynomolgus IL4Rα; Cyno-IL4Rα-his; not shown: his tag
- Assay Overview: indirect ELISA, coated cyno IL4Rα-his
Measurement Label: EC50 (nM)
Just the number please, in nM, no unit attached.

Binder	EC50 [nM]
mouse antibody B8G11F2B7G5E8 (antibody, V domains shown, Mouse hybridoma mAb; also called Mouse B8G11F2B7G5E8; mAb B8G11F2B7G5E8) VH: EVQLQQSGADLVRPGASVKLSCTASGFNIKDTYMHWVKQRPEQGLEWVGRIDPTNGYTIYASKFQGKATITADTSSNTAYMQLSSLTSGDTAVYHCVSRRPWFAYWGQGTLVTVSA VL: DILMTQTPLSLPVSLGAQASISCRSSQSIVHSNGNTYLEWYLQKPGQSPKLLIYKVTNRFSGVPDRFSGSGSGTDFTLKISRVEAEDLGIYYCFQGSHVPYTFGGGTKLEIK	0.5

Query: EC50; subject: chimeric antibody B8G11F2B7G5E8 (antibody, human IgG4 S228P, kappa, V domains shown, Mouse variable domains on human IgG4/kappa; also called Chimeric B8G11F2B7G5E8; chB8G11F2B7G5E8) VH: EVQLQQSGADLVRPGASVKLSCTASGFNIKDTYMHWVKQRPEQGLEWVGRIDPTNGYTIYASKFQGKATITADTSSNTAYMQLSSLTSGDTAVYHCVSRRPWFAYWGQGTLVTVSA VL: DILMTQTPLSLPVSLGAQASISCRSSQSIVHSNGNTYLEWYLQKPGQSPKLLIYKVTNRFSGVPDRFSGSGSGTDFTLKISRVEAEDLGIYYCFQGSHVPYTFGGGTKLEIKR 1.06

Requested read-out: EC50. Entry: huB8G11F2B7G5E8-V4 (antibody, human IgG4 S228P, kappa, V domains shown, Humanized, human IgG4/kappa; also called huBSG11F2B7G5E8-V4) VH: EVQLVQSGAEVKKPGATVKISCKASGFNIKDTYMHWVKQAPGKGLEWMGRIDPTNGYTIYASKFQGKATITADTSSNTAYMELSSLRSEDTAVYHCVSRRPWFAYWGQGTLVTVSS VL: DIVMTQTPLSLSVTPGQPASISCRSSQSIVHSNGNTYLEWYLQKPGQSPQLLIYKVTNRFSGVPDRFSGSGSGTDFTLKISRVEAEDVGVYYCFQGSHVPYTFGQGTKLEIKR 7.12

Which value of EC50 has been reported for huB8G11F2B7G5E8-V2 (antibody, human IgG4 S228P, kappa, V domains shown, Humanized, human IgG4/kappa; also called huBSG11F2B7G5E8-V2) VH: EVQLVQSGAEVKKPGATVKISCKVSGFNIKDTYMHWVKQAPGKGLEWVGRIDPTNGYTIYASKFQGKATITADTSSNTAYMELSSLRSEDTAVYHCVSRRPWFAYWGQGTLVTVSS VL: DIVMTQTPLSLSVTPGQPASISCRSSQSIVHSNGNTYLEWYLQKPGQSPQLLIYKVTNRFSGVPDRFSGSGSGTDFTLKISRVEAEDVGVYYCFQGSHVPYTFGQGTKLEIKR in the records? 914

I'd like to know its EC50. The binder in question is huC2C1A1A1-V14 (antibody, human IgG4 S228P, kappa, V domains shown, Humanized, human IgG4/kappa) VH: EVQLVESGGGLVQPGGSLRLSCAASGFTFSTYGMSWVRQAPGKGLVWVATINSNGGSTSYPDSVKGRFTISRDNAKNTLYLQMNSLRAEDTAVYYCARFFRFRNAMDYWGQGTLVTVSS VL: DIQMTQSPSSLSASVGQRVTITCRTSENIYSYLAWYQQKQGKPPRFLIYNAKTLAEGVPSRFSGSGSGTEFTLTITSLQAEDFGVYYCQHYYGPPTWTFGPGTKLEIKR 0.68
